- Test system: Ruminococcus gnavus DSM 108212
- test_protocol: growth (OD595) fold change vs plate DMSO controls (fold change (ratio)); higher = more growth
- test_context: 20 µM; incubation time: 27 h, anaerobic, 37 °C
Give measured growth for each item. Keep answers brief.
Could you keep your reply to the number by itself?

Asked: Form: Entry = CC1(C)C(C=C(Cl)Cl)C1C(=O)OCc1cccc(Oc2ccccc2)c1 (mixture of isomers) | System = Ruminococcus gnavus DSM 108212 | growth = ____
Given back: 1.07

Asked: Form: Entry = O=[N+]([O-])c1cc(C(F)(F)F)c(Cl)c([N+](=O)[O-])c1Nc1ncc(C(F)(F)F)cc1Cl | System = Ruminococcus gnavus DSM 108212 | growth = ____
Given back: 1.18

Asked: Form: Entry = CCC(C)c1ccccc1OC(=O)NC (stereo unspecified) | System = Ruminococcus gnavus DSM 108212 | growth = ____
Given back: 1.01

Asked: Form: Entry = CS(=O)(=O)c1ccc(C(=O)C2C(=O)CCCC2=O)c([N+](=O)[O-])c1 | System = Ruminococcus gnavus DSM 108212 | growth = ____
Given back: 1.02

Asked: Form: Entry = Nc1nc(N)nc(N)n1 [Melamine] | System = Ruminococcus gnavus DSM 108212 | growth = ____
Given back: 1.11

Asked: Form: Entry = CCCCc1c(C)nc(NCC)nc1OS(=O)(=O)N(C)C | System = Ruminococcus gnavus DSM 108212 | growth = ____
Given back: 0.952

Asked: Form: Entry = CC(C)C[C@H](CN)CC(=O)O [Pregabalin] | System = Ruminococcus gnavus DSM 108212 | growth = ____
Given back: 0.865

Asked: Form: Entry = O=C(NC(=O)c1c(F)cccc1F)Nc1ccc(Cl)cc1 | System = Ruminococcus gnavus DSM 108212 | growth = ____
Given back: 0.975

Asked: Form: Entry = OC(Cc1ccccc1Cl)(Cn1nc[nH]c1=S)C1(Cl)CC1 (stereo unspecified) | System = Ruminococcus gnavus DSM 108212 | growth = ____
Given back: 0.953

Asked: Form: Entry = CCC(CC)Nc1c([N+](=O)[O-])cc(C)c(C)c1[N+](=O)[O-] | System = Ruminococcus gnavus DSM 108212 | growth = ____
Given back: 1.02

Asked: Form: Entry = COP(=O)(NC(C)=O)SC (stereo unspecified) | System = Ruminococcus gnavus DSM 108212 | growth = ____
Given back: 1.04
